Hi there, I'd appreciate the recorded metabolised at 0.5 h, 1 µM for every entry that follows.
- procedureText: Metabolic stability in human liver microsomes assessed as metabolic turnover at 1 uM measured after 30 mins in presence of NADPH by LC/MS analysis
- Format: ADME, Microsome
- conditionsUsed: read-out: Drug metabolism

The measured metabolised at 0.5 h, 1 µM associated with `C[C@H](Nc1ncnc(N)c1C#N)c1nc2ccc(F)cc2n1-c1cccnc1` reads < 10%

Lab note: measured metabolised at 0.5 h, 1 µM of `C[C@H](Nc1ncnc(N)c1C#N)c1nc2ccc(F)cc2n1-c1cc(F)cc(F)c1` was 11%

So for `C[C@H](Nc1ncnc(N)c1C#N)c1nc2ccc(F)cc2n1-c1cncc(F)c1` , the logged metabolised at 0.5 h, 1 µM turned out to be < 10%

Field metabolised at 0.5 h, 1 µM (entry `C[C@H](Nc1ncnc(N)c1C#N)c1nc2ccc(F)cc2n1-c1ccccn1` ) reads < 10%

Short answer for `C[C@H](Nc1ncnc(N)c1C#N)c1nc2ccc(F)cc2n1-c1cccc(F)c1` : metabolised at 0.5 h, 1 µM was 15%

Reported metabolised at 0.5 h, 1 µM ( `C[C@H](Nc1ncnc(N)c1C#N)c1nc2ccc(F)cc2n1-c1ccccc1` ) = < 10%

Reported metabolised at 0.5 h, 1 µM of `C[C@H](Nc1ncnc(N)c1C#N)c1nc2ccc(F)cc2n1-c1cccc(S(C)(=O)=O)c1` : < 10%

Looking up `C[C@H](Nc1ncnc(N)c1C#N)c1nc2ccc(F)cc2n1-c1ccc(F)cc1` , I found its metabolised at 0.5 h, 1 µM recorded as < 10%

====

- procedureText: Aqueous solubility of the compound in PBS buffer at pH 7.4 incubated for 72 hrs by HPLC analysis
- Type: physicochemical
reportedProperty: solubility at 72 h (µM)
Use µM as the unit, but write only the number.

Field solubility at 72 h (entry `C[C@H](Nc1ncnc(N)c1C#N)c1nc2ccc(F)cc2n1-c1cccc(F)c1` ) reads 401

Summary for this compound, `C[C@H](Nc1ncnc(N)c1C#N)c1nc2ccc(F)cc2n1-c1ccc(F)cc1` : solubility at 72 h is 353

Lab book: solubility at 72 h of `C[C@H](Nc1ncnc(N)c1C#N)c1nc2ccc(F)cc2n1-c1ccccc1` noted as 374

Entry `C[C@H](Nc1ncnc(N)c1C#N)c1nc2ccc(F)cc2n1-c1ccccn1` — recorded solubility at 72 h = 500

Just so you know, measured solubility at 72 h for `C[C@H](Nc1ncnc(N)c1C#N)c1nc2ccc(F)cc2n1-c1cc(F)cc(F)c1` came out at 305

The measured solubility at 72 h associated with `C[C@H](Nc1ncnc(N)c1C#N)c1nc2ccc(F)cc2n1-c1cccnc1` reads 474

According to the records, this compound `C[C@H](Nc1ncnc(N)c1C#N)c1nc2ccc(F)cc2n1-c1cncc(F)c1` displays solubility at 72 h of 500

Kindly note the recorded solubility at 72 h for `C[C@H](Nc1ncnc(N)c1C#N)c1nc2ccc(F)cc2n1-c1cccc(S(C)(=O)=O)c1` , which is 500

====

For each record, write down the corresponding metabolised at 0.5 h, 1 µM.
- procedureText: Metabolic stability in rat liver microsomes assessed as metabolic turnover at 1 uM measured after 30 mins in presence of NADPH by LC/MS analysis
- Assay type: ADME, Microsome
- conditionsUsed: read-out: Drug metabolism
Give just the numeric value; % need not be written.

What the record says about `C[C@H](Nc1ncnc(N)c1C#N)c1nc2ccc(F)cc2n1-c1ccc(F)cc1` : metabolised at 0.5 h, 1 µM is 22

The molecule identified as `C[C@H](Nc1ncnc(N)c1C#N)c1nc2ccc(F)cc2n1-c1cc(F)cc(F)c1` registered its metabolised at 0.5 h, 1 µM at 30

// metabolised at 0.5 h, 1 µM value for `C[C@H](Nc1ncnc(N)c1C#N)c1nc2ccc(F)cc2n1-c1cccc(F)c1` : 28

In plain terms, `C[C@H](Nc1ncnc(N)c1C#N)c1nc2ccc(F)cc2n1-c1ccccc1` has a documented metabolised at 0.5 h, 1 µM of 26
